SYSTEM: UniProtKB Q9Y6L6
Sequence (Q9Y6L6 whole entry): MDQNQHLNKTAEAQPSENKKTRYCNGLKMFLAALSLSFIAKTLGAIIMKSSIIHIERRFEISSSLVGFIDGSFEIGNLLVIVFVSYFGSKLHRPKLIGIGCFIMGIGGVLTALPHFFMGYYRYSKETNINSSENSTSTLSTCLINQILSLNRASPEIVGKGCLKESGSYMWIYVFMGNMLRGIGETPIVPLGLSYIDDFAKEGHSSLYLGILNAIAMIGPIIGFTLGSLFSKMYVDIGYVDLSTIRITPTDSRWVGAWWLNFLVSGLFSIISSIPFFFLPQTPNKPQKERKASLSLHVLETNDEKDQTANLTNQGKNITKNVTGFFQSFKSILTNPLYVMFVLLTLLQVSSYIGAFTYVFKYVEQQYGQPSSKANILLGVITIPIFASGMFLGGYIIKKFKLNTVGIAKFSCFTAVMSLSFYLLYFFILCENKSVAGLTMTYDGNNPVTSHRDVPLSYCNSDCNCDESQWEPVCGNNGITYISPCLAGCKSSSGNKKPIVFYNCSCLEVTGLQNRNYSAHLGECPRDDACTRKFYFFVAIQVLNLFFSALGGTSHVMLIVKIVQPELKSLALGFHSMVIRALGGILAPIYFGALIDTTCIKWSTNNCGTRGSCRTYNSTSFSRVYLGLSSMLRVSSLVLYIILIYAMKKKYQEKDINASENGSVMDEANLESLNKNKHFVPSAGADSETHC
TEST DESCRIPTION: Inhibition of OATP1B1-mediated [3H]estrone-3-sulfate uptake in HEK293-OATP1B1 cells
ATTRIBUTE MEASURED: pIC50
Scale: pIC50 equals -log10([C]), with [C] in mol/L.

CC(C)=CCC[C@](C)(O)[C@H]1CC[C@]2(C)[C@@H]1[C@H](O)C[C@@H]1[C@@]3(C)CC[C@H](O[C@@H]4O[C@H](CO)[C@@H](O)[C@H](O)[C@H]4O)C(C)(C)[C@@H]3CC[C@]12C [Rh2, ginsenoside Rh2]    4.65
CC(C)=CCC[C@](C)(O[C@@H]1O[C@H](CO[C@@H]2OC[C@H](O)[C@H](O)[C@H]2O)[C@@H](O)[C@H](O)[C@H]1O)[C@H]1CC[C@]2(C)[C@@H]1[C@H](O)C[C@@H]1[C@@]3(C)CC[C@H](O[C@@H]4O[C@H](CO)[C@@H](O)[C@H](O)[C@H]4O[C@@H]4O[C@H](CO)[C@@H](O)[C@H](O)[C@H]4O)C(C)(C)[C@@H]3CC[C@]12C [Rb2, ginsenoside Rb2]    4.32
CC(C)=CCC[C@](C)(O[C@@H]1O[C@H](CO[C@@H]2O[C@H](CO)[C@@H](O)[C@H](O)[C@H]2O)[C@@H](O)[C@H](O)[C@H]1O)[C@H]1CC[C@]2(C)[C@@H]1[C@H](O)C[C@@H]1[C@@]3(C)CC[C@H](O[C@@H]4O[C@H](CO)[C@@H](O)[C@H](O)[C@H]4O[C@@H]4O[C@H](CO)[C@@H](O)[C@H](O)[C@H]4O)C(C)(C)[C@@H]3CC[C@]12C [Rb1, ginsenoside Rb1]    4.17
CO[C@H]1/C=C/O[C@@]2(C)Oc3c(C)c(O)c4c(O)c(c(/C=N/N5CCN(C)CC5)c(O)c4c3C2=O)NC(=O)/C(C)=C\C=C\[C@H](C)[C@H](O)[C@@H](C)[C@@H](O)[C@@H](C)[C@H](OC(C)=O)[C@@H]1C [Rifampin, rifampin, reference compound]    4.54

For UniProtKB Q9Y6L6, give the measured pIC50 of the entry CC(C)=CCC[C@](C)(O[C@@H]1O[C@H](CO)[C@@H](O)[C@H](O)[C@H]1O)[C@H]1CC[C@]2(C)[C@@H]1[C@H](O)C[C@@H]1[C@@]3(C)CC[C@H](O[C@@H]4O[C@H](CO)[C@@H](O)[C@H](O)[C@H]4O[C@@H]4O[C@H](CO)[C@@H](O)[C@H](O)[C@H]4O)C(C)(C)[C@@H]3CC[C@]12C [Rd, ginsenoside Rd]
4.80

###

TEST DESCRIPTION: Plasma pharmacokinetics of Rc in rats after repeated iv injection
Assay type: in vivo
CONDITION LABEL: rat plasma, Rc 3 mg/kg/day iv for 5 days; read-out: AUC24h
Procedure: The rats were randomly divided into the control and Rc groups. The Rc group was injected with Rc solution (3 mg/mL/kg, dissolved in saline) intravenously via the tail vein for 5 consecutive days. The control group received saline (1 mL/kg) for 5 consecutive days via the tail vein. After 1 h following the last Rc treatment, valsartan was injected intravenously via the femoral vein at 1 mg/kg.
ATTRIBUTE MEASURED: AUC(0-t)
Mention the unit after the number when you answer.

Entry CC(C)=CCC[C@](C)(O[C@@H]1O[C@H](CO[C@@H]2O[C@@H](CO)[C@H](O)[C@H]2O)[C@@H](O)[C@H](O)[C@H]1O)[C@H]1CC[C@]2(C)[C@@H]1[C@H](O)C[C@@H]1[C@@]3(C)CC[C@H](O[C@@H]4O[C@H](CO)[C@@H](O)[C@H](O)[C@H]4O[C@@H]4O[C@H](CO)[C@@H](O)[C@H](O)[C@H]4O)C(C)(C)[C@@H]3CC[C@]12C [Rc, ginsenoside Rc] needs its AUC(0-t) filled in; supply it.
749 µM·h
